- experiment_summary: Plasma pharmacokinetics, LC/MS/MS, non-compartmental analysis
- run_parameters: dose level 4 (30+75 mg/m^2 bolus+infusion); 2 pts; first dose; mean ± SD
measured_quantity: Cmax (nM)
Give bare numbers, in nM.

Report Cmax for CN1CC[C@H](c2c(O)cc(O)c3c(=O)cc(-c4ccccc4Cl)oc23)[C@H](O)C1 please. 2710

====

- experiment_summary: Plasma pharmacokinetics, LC/MS/MS, non-compartmental analysis
- run_parameters: dose level 2, 2B (30+45 mg/m^2 bolus+infusion); 9 pts; first dose; mean ± SD
measured_quantity: Cmax (µM)
Numbers only, in µM.

Report Cmax for CN1CC[C@H](c2c(O)cc(O)c3c(=O)cc(-c4ccccc4Cl)oc23)[C@H](O)C1 please. 1.79
